System: A2780 (ovarian carcinoma cell line)
Assay Procedure: MTS cell viability assay, A2780
Format: cell-based, human
Condition Description: Homo sapiens, A2780, 48 h of exposure, mean ± SEM
Value Type: IC50 (nM)
Response body: numeric value in nM, unit text excluded.

Incoming: Suppose we examine the compound COc1cccc2c1C(=O)c1c(O)c3c(c(O)c1C2=O)C[C@@](O)(C(=O)CO)C[C@@H]3O[C@H]1C[C@H](N)[C@H](O)[C@H](C)O1 [doxorubicin, reference compound] ; what IC50 value has been reported?
Outgoing: 100

###

Test system: HCT116-DoxR cells
Assay Procedure: Alexa Fluor 488-annexin V/PI apoptosis assay, flow cytometry
Assay type: cell-based, human
Condition Description: 48 h, complexes at IC50, cisplatin 5 μM, Dox 6 μM
Respond with t for necrosis values of 1% and above, f for values below.

Incoming: Assess whether reported necrosis for N.N.[Cl][Pt][Cl] [cisplatin, reference compound] sits at 1% or higher.
Outgoing: t

Incoming: And then O=C1[O][V](=[O])[O]C(=O)c2cccc1n2.c1cnc2c(c1)ccc1cccnc12 [complex 8, [VO(dipic)(phen)]] , what is it?
Outgoing: f

Incoming: And then O=C1[O][V](=[O])[O]C(=O)c2cccc1n2.c1ccc(-c2ccnc3c2ccc2c(-c4ccccc4)ccnc23)cc1 [complex 6, [VO(dipic)(4,7-Ph2-phen)]] , what is it?
Outgoing: t

Incoming: And then COc1ccnc2c1ccc1c(OC)ccnc12.O=C1[O][V](=[O])[O]C(=O)c2cccc1n2 [complex 5, [VO(dipic)(4,7-(CH3O)2-phen)]] , what is it?
Outgoing: f

Incoming: And then COc1cccc2c1C(=O)c1c(O)c3c(c(O)c1C2=O)C[C@@](O)(C(=O)CO)C[C@@H]3O[C@H]1C[C@H](N)[C@H](O)[C@H](C)O1 [doxorubicin, reference compound] , what is it?
Outgoing: t

###

Assay Procedure: n-octanol/PBS buffer partition coefficient, shake-flask, UV-vis
Condition Description: room temperature
Please go through the items and note down their log P.
Give the figure only, with no unit attached.

Incoming: Suppose we examine the molecule O=C1[O][V](=[O])[O]C(=O)c2cccc1n2.c1ccc(-c2ccccn2)nc1 [complex 9, [VO(dipic)(bipy)]] ; what log P value has been reported?
Outgoing: 0.13

Incoming: And then O=C1[O][V](=[O])[O]C(=O)c2cccc1n2.c1ccc(-c2ccnc3c2ccc2c(-c4ccccc4)ccnc23)cc1 [complex 6, [VO(dipic)(4,7-Ph2-phen)]] , what is it?
Outgoing: 0.57

Incoming: And then Clc1ccnc2c1ccc1c(Cl)ccnc12.O=C1[O][V](=[O])[O]C(=O)c2cccc1n2 [complex 4, [VO(dipic)(4,7-Cl2-phen)]] , what is it?
Outgoing: 0.44

Incoming: And then COc1ccnc2c1ccc1c(OC)ccnc12.O=C1[O][V](=[O])[O]C(=O)c2cccc1n2 [complex 5, [VO(dipic)(4,7-(CH3O)2-phen)]] , what is it?
Outgoing: 0.55

Incoming: And then O=C1[O][V](=[O])[O]C(=O)c2cccc1n2.c1cnc2c(c1)ccc1cccnc12 [complex 8, [VO(dipic)(phen)]] , what is it?
Outgoing: 0.40

Incoming: And then O=C1[O][V](=[O])[O]C(=O)c2cccc1n2.c1ccc2c(c1)Sc1ccccc1N2c1ccnc2c1ccc1c(N3c4ccccc4Sc4ccccc43)ccnc12 [complex 7, [VO(dipic)(4,7-(phtiaz)2-phen)]] , what is it?
Outgoing: 0.62

###

System: HCT116-DoxR cells
Assay Procedure: Alexa Fluor 488-annexin V/PI apoptosis assay, flow cytometry
Format: cell-based, human
Condition Description: 48 h, complexes at IC50, cisplatin 5 μM, Dox 6 μM
Value Type: viable cells (%)
Response body: numeric value in %, unit text excluded.

Incoming: Suppose we examine the molecule COc1ccnc2c1ccc1c(OC)ccnc12.O=C1[O][V](=[O])[O]C(=O)c2cccc1n2 [complex 5, [VO(dipic)(4,7-(CH3O)2-phen)]] ; what viable cells value has been reported?
Outgoing: 28.3

Incoming: And then O=C1[O][V](=[O])[O]C(=O)c2cccc1n2.c1cnc2c(c1)ccc1cccnc12 [complex 8, [VO(dipic)(phen)]] , what is it?
Outgoing: 49.8

Incoming: And then COc1cccc2c1C(=O)c1c(O)c3c(c(O)c1C2=O)C[C@@](O)(C(=O)CO)C[C@@H]3O[C@H]1C[C@H](N)[C@H](O)[C@H](C)O1 [doxorubicin, reference compound] , what is it?
Outgoing: 54.9

Incoming: And then O=C1[O][V](=[O])[O]C(=O)c2cccc1n2.c1ccc(-c2ccnc3c2ccc2c(-c4ccccc4)ccnc23)cc1 [complex 6, [VO(dipic)(4,7-Ph2-phen)]] , what is it?
Outgoing: 27.7

###

Test system: HCT116-DoxR (doxorubicin-resistant colorectal carcinoma cell line)
Assay Procedure: MTS cell viability assay, HCT116-DoxR
Condition Description: read-out: IC50 HCT116-DoxR; 48 h of exposure, MTS, mean ± SEM
Value Type: pIC50
Please report pIC50 as the negative decimal logarithm of the molar concentration, giving only the number.

Incoming: Suppose we examine the compound O=C1C(=O)c2cccnc2-c2ncccc21.O=C1[O][V](=[O])[O]C(=O)c2cccc1n2 [complex 3, [VO(dipic)(phendione)]] ; what pIC50 value has been reported?
Outgoing: 5.89

Incoming: And then O=C1[O][V](=[O])[O]C(=O)c2cccc1n2.c1ccc(-c2ccccn2)nc1 [complex 9, [VO(dipic)(bipy)]] , what is it?
Outgoing: 4.41

Incoming: And then COc1ccnc2c1ccc1c(OC)ccnc12.O=C1[O][V](=[O])[O]C(=O)c2cccc1n2 [complex 5, [VO(dipic)(4,7-(CH3O)2-phen)]] , what is it?
Outgoing: 6.70

###

Tested on: HCT116-DoxR cells
Assay Procedure: Cell cycle progression, PI, flow cytometry
Condition Description: HCT116-DoxR, 3, 9, 24, 32 h; complexes at IC50, cisplatin 5 μM, Dox 6 μM
Value Type: cell cycle arrest / cytostatic effect

* COc1ccnc2c1ccc1c(OC)ccnc12.O=C1[O][V](=[O])[O]C(=O)c2cccc1n2 [complex 5, [VO(dipic)(4,7-(CH3O)2-phen)]] | no cell cycle arrest
* O=C1[O][V](=[O])[O]C(=O)c2cccc1n2.c1ccc(-c2ccnc3c2ccc2c(-c4ccccc4)ccnc23)cc1 [complex 6, [VO(dipic)(4,7-Ph2-phen)]] | no cell cycle arrest

###

Please go through the items and note down their IC50.
System: normal human primary dermal fibroblasts
Assay Procedure: MTS cell viability assay, fibroblasts
Condition Description: read-out: IC50 fibroblasts (ligands); free ligands, 48 h of exposure, mean ± SEM

Incoming: Suppose we examine the compound c1ccc2c(c1)Sc1ccccc1N2c1ccnc2c1ccc1c(N3c4ccccc4Sc4ccccc43)ccnc12 [4,7-(phtiaz)2-phen, 4,7-phenothiazine-1,10-phenanthroline] ; what IC50 value has been reported?
Outgoing: > 50 µM

Incoming: And then O=C(O)c1cccc(C(=O)O)n1 [Dipic, dipicolinate] , what is it?
Outgoing: > 50 µM

###

Test system: HCT116-DoxR (doxorubicin-resistant colorectal carcinoma cell line)
Assay Procedure: MTS cell viability assay, HCT116-DoxR;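 also: MTS colorimetric quantification of viable cells, with loss of viability tracked as complex concentration rises, in DMEM-grown HCT116-DoxR, a line whose resistance involves P-glycoprotein efflux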
Condition Description: read-out: IC50 HCT116-DoxR; 48 h of exposure, MTS, mean ± SEM
pIC50: −log10 of the molar value.
Value Type: pIC50

Incoming: Suppose we examine the compound O=C1[O][V](=[O])[O]C(=O)c2cccc1n2.c1c[nH]cn1.c1c[nH]cn1 [complex 10, [VO(dipic)(im)2]] ; what pIC50 value has been reported?
Outgoing: < 4.30

Incoming: And then O=C1[O][V](=[O])[O]C(=O)c2cccc1n2.c1ccc(-c2ncc[nH]2)nc1 [complex 1, [VO(dipic)(pyim)]] , what is it?
Outgoing: < 4.30

Incoming: And then O=C1[O][V](=[O])[O]C(=O)c2cccc1n2.c1ccc2c(c1)Sc1ccccc1N2c1ccnc2c1ccc1c(N3c4ccccc4Sc4ccccc43)ccnc12 [complex 7, [VO(dipic)(4,7-(phtiaz)2-phen)]] , what is it?
Outgoing: < 4.30

###

Assay Procedure: n-octanol/PBS buffer partition coefficient, shake-flask, UV-vis
Condition Description: room temperature
Value Type: log P

- O=C1C(=O)c2cccnc2-c2ncccc21.O=C1[O][V](=[O])[O]C(=O)c2cccc1n2 [complex 3, [VO(dipic)(phendione)]]: –0.16
- O=C1[O][V](=[O])[O]C(=O)c2cccc1n2.c1c[nH]cn1.c1c[nH]cn1 [complex 10, [VO(dipic)(im)2]]: –1.28
- O=C1[O][V](=[O])[O]C(=O)c2cccc1n2.c1ccc(-c2nc3ccccc3[nH]2)nc1 [complex 2, [VO(dipic)(pybim)]]: –0.10
- O=C1[O][V](=[O])[O]C(=O)c2cccc1n2.c1ccc(-c2ncc[nH]2)nc1 [complex 1, [VO(dipic)(pyim)]]: –0.04
